- TEST METHOD NOTES: PSAC antagonists in infected red cells, primary screen, cell-based, P. falciparum Indochina, OD700, 2 h (AID 1155);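 also: lysis reports solute entry through the parasite surface anion channel PSAC; channel blockers reduce lysis of infected cells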
- ASSAY CONTEXT: P. falciparum Indochina infected erythrocytes, osmotic lysis OD700; higher = more signal, called active from +8 up or from −8 down
Activity calls are given as the source filed them.
Reported z-score values are given for each entry in this list.
REPORTED METRIC: z-score

{"columns": ["SMILES CODE", "REPORTED METRIC", "VALUE OBSERVED"],
 "data": [
  ["O=C1[C@H]2[C@H]3[C@H](O)[C@H](O)CC(=NO[C@@H]4O[C@H](CO)[C@@H](O)[C@H](O)[C@H]4O)[C@@H]3CC[C@H]2C(=O)N1c1ccc(F)cc1F", "z-score", "0.363 (inactive)"],
  ["CCCNC(=O)OC[C@H]1O[C@H](CCON=CC[C@@H]2C=C[C@H](OC(C)=O)[C@@H](COC(C)=O)O2)C=C[C@@H]1Oc1ccc(OC)cc1", "z-score", "0.405 (inactive)"],
  ["O=C1[C@H]2[C@H]3[C@H](O)[C@H](O)CC(=NOCc4ccccc4)[C@H]3CC[C@H]2C(=O)N1c1cccc(Oc2ccccc2)c1", "z-score", "1.42 (inactive)"]
]}

---

- TEST METHOD NOTES: MM1S cell viability effects, profiling panel, calcein-AM fluorescence, 48 h, basal (AID 1165);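 also: viability of MM1S multiple myeloma cells under basal unstimulated conditions; test concentration not given here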
- ASSAY CONTEXT: higher = more signal
Measured z-score determines class: Low = under -2, Medium = from -2 up to 0.2, High = 0.2 and over

{"columns": ["COMPOUND", "ASSIGNED CATEGORY"],
 "data": [
  ["CCOC(=O)[C@H](Cc1ccccc1)NC(=O)CCC1CC(OC(=O)NCCc2ccc(F)cc2)CC2(CCCC(COC(=O)NCC(c3ccccc3)c3ccccc3)O2)O1 (stereo not given in full)", "Low"],
  ["O=C1[C@H]2[C@H]3[C@H](O)[C@H](O)CC(=NO[C@@H]4O[C@H](CO)[C@@H](O)[C@H](O)[C@H]4O)[C@H]3CC[C@H]2C(=O)N1Cc1ccccc1", "High"],
  ["CC(=O)OC[C@H]1O[C@@H](ON=C(C)CCN2CCc3nc(-c4ccccc4)c(-c4ccccc4)cc3C2)[C@H](OC(C)=O)[C@@H](OC(C)=O)[C@@H]1OC(C)=O", "Medium"],
  ["O=C(NN=C1C[C@@H](O)[C@@H](O)[C@@H]2[C@@H]3C(=O)N(c4cccc(Oc5ccccc5)c4)C(=O)[C@@H]3CC[C@H]12)OCc1ccccc1", "High"],
  ["COCCCNC(=O)[C@]1(Cc2ccccc2)N=C(c2ccc(OCCCO)cc2)O[C@@H]1c1ccccc1", "Low"],
  ["COc1ccc([Si](C)(C)[C@@H]2[C@@H](CCO)O[C@]3(C(=O)N(Cc4ccc(NC(C)=O)cc4)c4ccccc43)[C@H]2C)cc1", "Low"],
  ["CCOC(=O)C[C@H]1[C@H](OC(=O)c2ccc(C(=O)c3ccccc3)cc2)[C@@H](NC(=O)c2ccc(-c3ccccc3)cc2)c2cc(OCCCO)ccc2N1C(=O)c1ccc2ccccc2n1", "High"],
  ["C[C@H]1Cc2c(-c3ccccc3)nc3c(c2CO1)CN(CCOc1ccccc1)CC3", "High"],
  ["C[C@H](c1ccccc1)N1C(=O)[C@H]2[C@@H]3C(=CC[C@H]2C1=O)C(=O)[C@H]1O[C@H]1[C@H]3O", "Low"],
  ["CCCCCN1CC=CC23O[C@@H]4C=CCOC(=O)[C@@H]4[C@H]2C(=O)N(CCCCCCO)[C@@H]3C1=O (stereo not given in full)", "High"],
  ["CN1C(=O)C2C=CC(C(O)c3ccc(I)cc3)N(NC(=O)OC(C)(C)C)C2C1=O (stereo not given)", "Medium"],
  ["CC(CCC(=O)OC[C@H]1O[C@H](C#Cc2ccccc2)C=C[C@@H]1Oc1ccc(C)cc1)=NOC[C@@H](O)COCc1ccco1", "Low"],
  ["CC(CCN1CCCCc2nc(C)c(C)cc21)=NOC(C)CN1CCCc2nc(C)c(C)cc21 (stereo not given)", "Low"],
  ["C=CC[C@@H]1C=C[C@H](ON=C(C)CCN2CCc3nc(CC)c(CC)cc3C2)[C@@H](CO)O1", "Medium"],
  ["CC(C)C[C@@H]1NC(=O)[C@H]2C[C@@H](C(=O)NCCCCCCN(C)C)[C@@H](c3cccc(OCCO)c3)N2C1=O", "High"],
  ["COCCOC(=O)N1C(=O)[C@@]2(c3cc(C#CC4(O)CCCCCC4)ccc31)[C@H](C(=O)N1CCN(c3ncccn3)CC1)[C@H]1C(=O)O[C@H](c3ccccc3)[C@H](c3ccccc3)N1[C@@H]2c1ccc(OCCO)cc1", "Medium"],
  ["CCOC(=O)[C@H](Cc1ccccc1)NC(=O)CCC1CC(OC(=O)NCc2ccc3c(c2)OCO3)CC2(CCCC(COC(=O)NCC(c3ccccc3)c3ccccc3)O2)O1 (stereo not given in full)", "Low"],
  ["COc1ccc(O[C@H]2C=C[C@@H](c3ccccc3)O[C@@H]2COC(=O)CCC(C)=NOC[C@@H](C)[C@H](OCc2ccccc2)C(C)C)cc1", "Medium"],
  ["O=C1[C@H]2[C@H]3[C@H](O)[C@H](O)CC(=NO[C@@H]4O[C@H](CO)[C@@H](O)[C@H](O)[C@H]4O)[C@H]3CC[C@H]2C(=O)N1Cc1ccc2c(c1)OCO2", "Medium"]
]}

---

- TEST METHOD NOTES: small-molecule microarray binders of probe aShh, primary screen, biochemical, biotinylated probe, 635/667 nm fluorescence (AID 1114);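 also: probe is biotin-labelled aShh protein from a stem cell growth factor screen; measures binding of labelled protein to compounds printed on the slide; score merges feature fluorescence at 667 nm with signal-to-noise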
- ASSAY CONTEXT: higher = more signal
Measured composite z-score determines class: bin 0 (below -0.1), bin 1 (-0.1 to below 0.1), bin 2 (0.1 or more)

{"columns": ["COMPOUND", "ASSIGNED CATEGORY"],
 "data": [
  ["CC(=O)OC[C@H]1O[C@@H](ON=C[C@@H](C)[C@H](OCc2ccccc2)C(C)C)[C@H](OC(C)=O)[C@@H](OC(C)=O)[C@@H]1OC(C)=O", "bin 0"],
  ["COc1ccc(O[C@H]2C=C[C@@H](c3ccccc3)O[C@@H]2COC(=O)CCC(C)=NOCC[C@@H]2C=C[C@H](OC(C)=O)[C@@H](COC(C)=O)O2)cc1", "bin 2"],
  ["C#CCCCON=C1C[C@@H](O)[C@@H](O)[C@@H]2[C@@H]3C(=O)N(CCC(=O)OCC)C(=O)[C@@H]3CC[C@@H]12", "bin 2"],
  ["CC(C)=NOCc1ccc(-c2cc(-c3ccccc3)no2)cc1", "bin 0"],
  ["COc1cccc([C@@H]2Oc3ccc(Br)cc3C(=O)[C@H]2O)c1", "bin 0"],
  ["COc1ccc(OC[C@H]2Cc3c(-c4ccccc4)nc4c(c3CO2)CN(CCOc2ccccc2)CC4)cc1", "bin 1"],
  ["CC(=O)O[C@H]1C2=C(C(=O)[C@@H]3O[C@@H]31)[C@H]1C(C)O[C@@H]2[C@@]23C(=O)[C@@H]4O[C@@H]4[C@@H](O)C2=CO[C@H](C)[C@@H]13 (stereo partly drawn)", "bin 0"],
  ["CN1C(=O)C2C(C1=O)C1C=C(CCCO)C2C(c2ccc(CN3CCCC3)cc2)N1C (stereo not drawn)", "bin 0"],
  ["CC(C)[C@@H](OCc1ccccc1)[C@H](C)C=NOC[C@@H](C)[C@H](OCc1ccccc1)C(C)C", "bin 1"],
  ["CCc1cc2c(nc1CC)CCN(CCC(C)=NO[C@@H](C)c1cc(-c3c(C)cc(C)cc3C)no1)C2", "bin 1"],
  ["C=CC[C@@H]1C=C[C@H](ON=C[C@@H](OC)[C@H](C)C=CCC(=O)OC)[C@@H](CO)O1", "bin 1"],
  ["CC(=O)OC[C@H]1O[C@H](CCON=C(C)CCN2CCc3nc(-c4ccccc4)c(-c4ccccc4)cc3C2)C=C[C@@H]1OC(C)=O", "bin 1"],
  ["Cn1c(=O)n2n(c1=O)[C@H]1[C@H](O)[C@@H]3O[C@@H]3C(=NOC[C@@H](O)COCc3ccco3)[C@H]1CC2", "bin 0"],
  ["O=C(CS)NCCCCCNC(=O)[C@@H]1C[C@@H]2C(=O)N[C@@H](Cc3ccccc3)C(=O)N2[C@@H]1c1ccc(O)cc1", "bin 2"],
  ["CC(=O)OC[C@H]1O[C@H](CCON=C(C)CCC(=O)OC[C@H]2O[C@H](C#Cc3ccccc3)C=C[C@@H]2Oc2ccc(C)cc2)C=C[C@@H]1OC(C)=O", "bin 0"],
  ["COc1ccc(O[C@H]2C=C[C@@H](c3ccccc3)O[C@@H]2COC(=O)CCC(C)=NO[C@@H](C)c2cc(-c3c(C)cc(C)cc3C)no2)cc1", "bin 2"],
  ["CCCC[C@H]1OB(O)C[C@H]2C1=C(C)C[C@H]1C(=O)N(C)C(=O)[C@H]12", "bin 0"],
  ["CN1C(=O)C2C=CC(C(O)C(c3ccccc3)c3ccccc3)N(NC(=O)OC(C)(C)C)C2C1=O (stereo not drawn)", "bin 2"],
  ["CC(CCN1CCCCc2nc(C)c(C)cc21)=NOC(C)CN1CCCc2nc(C)c(C)cc21 (stereo not drawn)", "bin 2"],
  ["CCOC(=O)[C@H](CC(C)C)NC(=O)CCC1CC(OC(=O)NCCc2ccc(F)cc2)CC2(CCCC(COC(=O)NCc3ccccc3)O2)O1 (stereo partly drawn)", "bin 0"],
  ["COC(=O)[C@@]1(Cc2ccccc2)[C@H]2c3cc(C(=O)N4CCCC4)n(Cc4ccccn4)c3C[C@H]2CN1C(=O)c1ccccc1", "bin 2"],
  ["O=C1c2ccccc2[C@@]2(Cc3ccccc3N(C3CC3)C2=O)[C@H](c2ccc(CO)cc2)N1Cc1ccccc1C(F)(F)F", "bin 1"],
  ["[N-]=[N+]=Nc1ccccc1C[C@@]1(C(N)=O)N=C(c2ccc(OCCCO)cc2)O[C@@H]1c1ccccc1", "bin 2"]
]}
